// provenance: patent US9295673B2

We begin with a simple list: items and their reported IC50.
tested on: PC3; test: PC3 proliferation (Alamar Blue); assay type: cell-based; settings: Homo sapiens, PC-3; PC3 cells
MEASUREMENT LABEL: IC50

>>> obs_value("C[C@H]1CN(C2CN(C(=O)c3cnc4ccc(-c5ccc6oc(N)nc6c5)cn34)C2)CCN1C [Compound 512]")
"< 1000 nM"
>>> obs_value("CO[C@@H]1CCN(C(=O)c2cnc3ccc(-c4ccc5oc(N)nc5c4)cn23)C1 [Compound 464]")
"< 10000 nM"
>>> obs_value("Nc1nc2cc(-c3ccc4ncc(C(=O)N5CC[C@H](n6cccn6)C5)n4c3)ccc2o1 [Compound 478]")
"< 1000 nM"
>>> obs_value("O=C(c1cnc2ccc(-c3cnc(Cl)c(NS(=O)(=O)c4ccccc4)c3)cn12)N1CCOCC1 [Compound 451]")
"< 1000 nM"
>>> obs_value("Nc1nc2cc(-c3ccc4ncc(C(=O)N5CC(N6CC[C@H](O)C6)C5)n4c3)ccc2o1 [Compound 469]")
"< 10000 nM"
>>> obs_value("CC1(C)CN(C2CN(C(=O)c3cnc4ccc(-c5ccc6oc(N)nc6c5)cn34)C2)CCN1 [Compound 515]")
"< 1000 nM"
>>> obs_value("Nc1nc2cc(-c3ccc4ncc(C(=O)N5C6CCC5COC6)n4c3)ccc2o1 [Compound 480]")
"< 1000 nM"
>>> obs_value("C[C@@H]1CN(C2CN(C(=O)c3cnc4ccc(-c5ccc6oc(N)nc6c5)cn34)C2)CCN1C [Compound 508]")
"< 1000 nM"
>>> obs_value("O=C(c1cnc2ccc(-c3cnc(Cl)c(NS(=O)(=O)c4ccccc4F)c3)cn12)N1CCOCC1 [Compound 452]")
"< 10000 nM"
>>> obs_value("COc1ncc(-c2ccc3ncc(C(=O)N4CCOCC4)n3c2)cc1NS(=O)(=O)c1cccnc1 [Compound 462]")
"< 1000 nM"
>>> obs_value("C[C@H]1COCCN1C(=O)c1cnc2ccc(-c3ccc4oc(N)nc4c3)cn12 [Compound 483]")
"< 10000 nM"
>>> obs_value("COc1ncc(-c2ccc3ncn(C4CCN(C)CC4)c(=O)c3c2)cc1NS(=O)(=O)c1ccccc1 [Compound 524]")
"< 1000 nM"
>>> obs_value("CN1CCC(n2cnc3ccc(-c4cnc(Cl)c(NS(C)(=O)=O)c4)cc3c2=O)CC1 [Compound 526]")
"< 10000 nM"
>>> obs_value("O=C(c1cnc2ccc(-c3cnc(Cl)c(NS(=O)(=O)c4cccc(F)c4)c3)cn12)N1CCOCC1 [Compound 458]")
"< 1000 nM"
>>> obs_value("Nc1nc2cc(-c3ccc4ncc(C(=O)N5CCC(F)(F)C5)n4c3)ccc2o1 [Compound 471]")
"< 10000 nM"
>>> obs_value("CN(C(=O)c1cnc2ccc(-c3ccc4oc(N)nc4c3)cn12)C1CCOCC1 [Compound 472]")
"< 10000 nM"

* * *

biological target: mTOR (Homo sapiens); construct: purchased Invitrogen; assay: mTOR kinase inhibition assay (radiometric or LanthaScreen TR-FRET); type: biochemical; settings: in vitro; read-out: mTORC IC50
Sequence (P42345 1360-2549 limits assumed): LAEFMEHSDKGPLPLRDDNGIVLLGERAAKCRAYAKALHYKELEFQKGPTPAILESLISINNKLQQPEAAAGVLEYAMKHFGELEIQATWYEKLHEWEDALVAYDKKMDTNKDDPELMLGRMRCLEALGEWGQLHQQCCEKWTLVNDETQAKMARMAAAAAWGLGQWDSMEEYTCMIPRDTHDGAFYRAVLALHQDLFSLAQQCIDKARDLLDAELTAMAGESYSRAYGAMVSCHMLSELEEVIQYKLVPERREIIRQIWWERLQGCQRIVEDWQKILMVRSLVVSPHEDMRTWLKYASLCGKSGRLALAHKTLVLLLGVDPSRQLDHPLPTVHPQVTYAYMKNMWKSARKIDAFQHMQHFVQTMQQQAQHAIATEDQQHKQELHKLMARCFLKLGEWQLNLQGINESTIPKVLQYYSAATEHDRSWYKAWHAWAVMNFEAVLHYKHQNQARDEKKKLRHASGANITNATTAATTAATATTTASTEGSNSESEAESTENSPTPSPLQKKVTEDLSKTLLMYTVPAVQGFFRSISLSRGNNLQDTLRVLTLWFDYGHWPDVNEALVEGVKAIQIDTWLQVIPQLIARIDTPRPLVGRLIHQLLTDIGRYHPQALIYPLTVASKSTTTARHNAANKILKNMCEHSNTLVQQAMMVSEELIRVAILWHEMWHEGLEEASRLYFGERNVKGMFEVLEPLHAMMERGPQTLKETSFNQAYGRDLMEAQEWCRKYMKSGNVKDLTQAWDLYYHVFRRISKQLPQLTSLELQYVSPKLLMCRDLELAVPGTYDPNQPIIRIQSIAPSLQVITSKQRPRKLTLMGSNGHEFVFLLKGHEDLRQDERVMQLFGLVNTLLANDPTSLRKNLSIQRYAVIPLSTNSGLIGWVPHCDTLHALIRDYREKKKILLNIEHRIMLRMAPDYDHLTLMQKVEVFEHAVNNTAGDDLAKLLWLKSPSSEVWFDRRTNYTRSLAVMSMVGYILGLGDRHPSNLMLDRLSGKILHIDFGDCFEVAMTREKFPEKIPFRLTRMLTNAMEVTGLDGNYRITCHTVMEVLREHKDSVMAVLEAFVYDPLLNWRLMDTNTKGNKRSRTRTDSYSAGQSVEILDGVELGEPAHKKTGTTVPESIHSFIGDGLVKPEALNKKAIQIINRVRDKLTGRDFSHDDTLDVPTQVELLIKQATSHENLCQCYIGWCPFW
pIC50: −log10 of the molar value.
MEASUREMENT LABEL: pIC50

>>> obs_value("Cc1ncc(-c2ccc3ncc(C(=O)N4C5CCC4COC5)n3c2)c2cn[nH]c12 [Compound 538]")
"< 5.00"
>>> obs_value("CN1CC2CN(C(=O)c3cnc4ccc(-c5ccc6oc(N)nc6c5)cn34)CC2C1 (stereo not drawn) [Compound 533]")
"< 5.00"
>>> obs_value("O=C(c1cnc2ccc(-c3ccnc4[nH]ncc34)cn12)N1CCOCC1 [Compound 532]")
"< 5.00"

* * *

molecular target: PI3K γ (Homo sapiens); assay: PI 3-Kinase (human) HTRF assay, PI3K γ; settings: read-out: PI3K γ IC50
pIC50: −log10 of the molar value.
MEASUREMENT LABEL: pIC50

>>> obs_value("Nc1ncnc2c1c(-c1cc3cccc(O)c3[nH]1)nn2C1CCN(C(=O)C2CC2)CC1")
"7.30 to 7.60"
>>> obs_value("CN1CCN(C2CC(n3nc(-c4cc5cc(O)ccc5[nH]4)c4c(N)ncnc43)C2)CC1 (stereo not shown)")
"< 6.30"
>>> obs_value("Nc1nc2cc(-c3ccc4ncc(C(=O)N5CCN(CC6CC6)CC5)n4c3)ccc2o1")
"> 5.00"
>>> obs_value("CC(=O)Nc1nc2ccc(-c3nc(N4CCOCC4)c4sc(CN5CCN(S(C)(=O)=O)CC5)cc4n3)cc2s1")
"< 5.00"
>>> obs_value("Nc1nc2cc(-c3ccc4ncc(C(=O)NC5CCC(O)CC5)n4c3)ccc2o1 (stereo not shown)")
"> 7.00"
>>> obs_value("Nc1nc2cc(-c3ccc4ncc(N5CC(N6C7CCC6COC7)C5)nc4n3)ccc2o1")
"< 5.00"
>>> obs_value("NC(=O)[C@H]1CCCN1C(=O)c1cnc2ccc(-c3ccc4oc(N)nc4c3)cn12")
"> 5.00"

* * *

target: PI3K γ (Homo sapiens, UniProt P48736); test: PI 3-Kinase (human) HTRF assay, PI3K γ; details: read-out: PI3K γ IC50; Table 4
Sequence (P48736 whole entry): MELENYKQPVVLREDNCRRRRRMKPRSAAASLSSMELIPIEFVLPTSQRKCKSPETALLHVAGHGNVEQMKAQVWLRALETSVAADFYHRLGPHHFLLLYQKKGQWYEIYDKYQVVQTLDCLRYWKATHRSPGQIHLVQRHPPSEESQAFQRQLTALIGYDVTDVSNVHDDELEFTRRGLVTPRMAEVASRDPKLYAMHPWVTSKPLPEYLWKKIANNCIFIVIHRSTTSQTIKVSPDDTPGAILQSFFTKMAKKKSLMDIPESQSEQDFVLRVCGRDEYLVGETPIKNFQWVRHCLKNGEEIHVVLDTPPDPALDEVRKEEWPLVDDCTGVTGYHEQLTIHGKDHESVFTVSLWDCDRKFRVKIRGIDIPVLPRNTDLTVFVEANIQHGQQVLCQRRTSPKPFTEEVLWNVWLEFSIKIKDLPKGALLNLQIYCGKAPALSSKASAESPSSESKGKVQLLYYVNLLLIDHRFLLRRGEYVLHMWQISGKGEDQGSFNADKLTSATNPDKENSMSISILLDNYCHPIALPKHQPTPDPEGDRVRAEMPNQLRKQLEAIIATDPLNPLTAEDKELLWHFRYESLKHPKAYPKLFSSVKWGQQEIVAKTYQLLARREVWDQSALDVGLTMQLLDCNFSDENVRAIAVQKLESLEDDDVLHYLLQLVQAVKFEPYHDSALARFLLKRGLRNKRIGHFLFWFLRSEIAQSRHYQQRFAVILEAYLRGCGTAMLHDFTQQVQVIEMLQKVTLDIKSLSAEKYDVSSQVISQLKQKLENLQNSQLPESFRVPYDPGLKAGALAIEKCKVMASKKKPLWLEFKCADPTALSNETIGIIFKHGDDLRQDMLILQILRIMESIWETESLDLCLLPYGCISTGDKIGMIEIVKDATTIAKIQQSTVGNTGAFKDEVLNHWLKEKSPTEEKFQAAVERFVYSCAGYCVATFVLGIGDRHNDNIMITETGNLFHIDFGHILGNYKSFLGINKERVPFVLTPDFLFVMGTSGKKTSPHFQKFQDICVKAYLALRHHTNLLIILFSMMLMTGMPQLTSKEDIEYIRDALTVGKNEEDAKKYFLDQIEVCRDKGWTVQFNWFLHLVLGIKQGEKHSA
MEASUREMENT LABEL: IC50

>>> obs_value("C[C@H]1COCCN1C1CN(c2cnc3ccc(-c4ccc5oc(N)nc5c4)nc3n2)C1 [Compound 612]")
"< 10 µM"
>>> obs_value("Nc1nc2cc(-c3ccc4ncc(N5CC(N6C7CCC6COC7)C5)cc4n3)ccc2o1 [Compound 618]")
"< 1 µM"
>>> obs_value("C[C@@H]1COCCN1C1CN(c2cnc3ccc(-c4ccc5oc(N)nc5c4)nc3n2)C1 [Compound 600]")
"< 10 µM"
>>> obs_value("Cc1nccn1C1CN(c2cnc3ccc(-c4ccc5oc(N)nc5c4)nc3n2)C1 [Compound 601]")
"< 10 µM"
>>> obs_value("Nc1nc2cc(-c3ccc4ncc(N5CC(N6CC7CCC(C6)O7)C5)nc4n3)ccc2o1 [Compound 571]")
"< 10 µM"
>>> obs_value("C[C@H]1CN(C2CN(c3cnc4ccc(-c5ccc6oc(N)nc6c5)nc4n3)C2)CCN1 [Compound 561]")
"< 10 µM"
>>> obs_value("CN1CC2CN(c3cnc4ccc(-c5ccc6oc(N)nc6c5)nc4c3)CC2C1 (stereo not shown) [Compound 630]")
"< 1 µM"
>>> obs_value("CC1CN(C2CN(c3cnc4ccc(-c5ccc6oc(N)nc6c5)nc4n3)C2)CCO1 (stereo not shown) [Compound 569]")
"< 10 µM"
>>> obs_value("CC(C)(N)C(=O)N1CCN(c2cnc3ccc(-c4ccc5oc(N)nc5c4)nc3n2)CC1 [Compound 591]")
"< 10 µM"
>>> obs_value("C[C@H]1COCCN1C1CN(c2cnc3ccc(-c4ccc5oc(N)nc5c4)nc3c2)C1 [Compound 619]")
"< 10 µM"
>>> obs_value("C[C@@H]1CN(c2cnc3ccc(-c4ccc5oc(N)nc5c4)nc3c2)CCN1 [Compound 599]")
"< 10 µM"
>>> obs_value("Nc1nc2cc(-c3cnc4ccc(N5CCOCC5)nc4c3)ccc2o1 [Compound 624]")
"< 10 µM"
>>> obs_value("Nc1nc2cc(-c3ccc4ncc(N5C6CCC5COC6)cc4n3)ccc2o1 [Compound 574]")
"< 0.1 µM"
>>> obs_value("Nc1nc2cc(-c3ccc4ncc(N5C6CCC5COC6)nc4n3)ccc2o1 [Compound 570]")
"< 0.1 µM"
>>> obs_value("Nc1nc2cc(-c3ccc4ncc(N5CC(N6CCN(CC7CC7)CC6)C5)cc4n3)ccc2o1 [Compound 611]")
"< 10 µM"
>>> obs_value("CCN1CCN(C2CN(c3cnc4ccc(-c5ccc6oc(N)nc6c5)nc4n3)C2)CC1 [Compound 627]")
"< 10 µM"
>>> obs_value("C[C@@H]1CN(C2CN(c3cnc4ccc(-c5ccc6oc(N)nc6c5)nc4c3)C2)CCN1C [Compound 608]")
"< 10 µM"
>>> obs_value("C[C@@H]1CN(C2CN(c3cnc4ccc(-c5ccc6oc(N)nc6c5)nc4n3)C2)CCN1C [Compound 576]")
"< 10 µM"
>>> obs_value("Nc1nc2cc(-c3ccc4ncc(N5CC(N6CCN(CC7CC7)CC6)C5)nc4n3)ccc2o1 [Compound 586]")
"< 10 µM"
>>> obs_value("C[C@H]1CN(C2CN(c3cnc4ccc(-c5ccc6oc(N)nc6c5)nc4c3)C2)CCN1 [Compound 605]")
"< 10 µM"
>>> obs_value("Nc1nc2cc(-c3ccc4ncc(N5CC(N6CCOCC6)C5)nc4n3)ccc2o1 [Compound 556]")
"< 10 µM"
>>> obs_value("Nc1nc2cc(-c3ccc4ncc(N5CC(N6CCN(CCO)CC6)C5)nc4n3)ccc2o1 [Compound 597]")
"< 10 µM"
>>> obs_value("Nc1nc2cc(-c3ccc4ncc(N5CC6CCC(C5)O6)cc4n3)ccc2o1 [Compound 610]")
"< 0.1 µM"
>>> obs_value("CCN1CCN(C2CN(c3cnc4ccc(-c5ccc6oc(N)nc6c5)nc4c3)C2)CC1 [Compound 626]")
"< 10 µM"
>>> obs_value("Nc1nc2cc(-c3ccc4ncc(N5CC(N6CCN(C7CC7)CC6)C5)nc4n3)ccc2o1 [Compound 620]")
"< 10 µM"
>>> obs_value("CN1CCN(c2cnc3ccc(-c4ccc5oc(N)nc5c4)nc3n2)CC1 [Compound 555]")
"< 10 µM"
>>> obs_value("C[C@H]1CN(c2cnc3ccc(-c4ccc5oc(N)nc5c4)nc3n2)CCN1 [Compound 552]")
"< 10 µM"
>>> obs_value("CN1CC2CN(c3cnc4ccc(-c5ccc6oc(N)nc6c5)nc4n3)CC2C1 (stereo not shown) [Compound 629]")
"< 10 µM"
